Give concentration at 0.5 h for every item shown.
Assay: in vivo
Set-up: species or system Sprague-Dawley (SD) rats
Conditions: Sprague-Dawley, rat, plasma, po, 60 mg·kg^−1

The reported concentration at 0.5 h of the compound CC(C)=CCC[C@](C)(O[C@@H]1O[C@H](CO)[C@@H](O)[C@H](O)[C@H]1O)[C@H]1CC[C@]2(C)[C@@H]1[C@H](O)C[C@@H]1[C@@]3(C)CC[C@H](O)C(C)(C)[C@@H]3[C@@H](O[C@@H]3O[C@H](CO)[C@@H](O)[C@H](O)[C@H]3O[C@@H]3O[C@@H](C)[C@H](O)[C@@H](O)[C@H]3O)C[C@]12C [GRe, ginsenoside Re] was 0.24 ng/mL

What the record says about CC(C)=CCC[C@](C)(O[C@@H]1O[C@H](CO)[C@@H](O)[C@H](O)[C@H]1O)[C@H]1CC[C@]2(C)[C@@H]1[C@H](O)C[C@@H]1[C@@]3(C)CC[C@H](O)C(C)(C)[C@@H]3[C@@H](O[C@@H]3O[C@H](CO)[C@@H](O)[C@H](O)[C@H]3O)C[C@]12C [GRg1, ginsenoside Rg1] : concentration at 0.5 h is 0.37 ng/mL

// sample CC(C)=CCC[C@](C)(O[C@@H]1O[C@H](CO)[C@@H](O)[C@H](O)[C@H]1O)[C@H]1CC[C@]2(C)[C@@H]1[C@H](O)C[C@@H]1[C@@]3(C)CC[C@H](O)C(C)(C)[C@@H]3[C@@H](O[C@@H]3O[C@H](CO)[C@@H](O)[C@H](O)[C@H]3O[C@@H]3OC[C@@H](O)[C@H](O)[C@H]3O)C[C@]12C [NGR1, notoginsenoside R1] , its concentration at 0.5 h was 0.5 ng/mL

---

Assay: in vivo
Design: species or system Sprague-Dawley (SD) rats
Details: Sprague-Dawley, plasma; 6 h after oral CNP, rat
OUTCOME_MEASURE: concentration at 6 h (ng/mL)
Note: unit ng/mL is implicit; provide only the numeric part.

Consider CC(C)=CCC[C@](C)(O[C@@H]1O[C@H](CO)[C@@H](O)[C@H](O)[C@H]1O)[C@H]1CC[C@]2(C)[C@@H]1[C@H](O)C[C@@H]1[C@@]3(C)CC[C@H](O)C(C)(C)[C@@H]3[C@@H](O[C@@H]3O[C@H](CO)[C@@H](O)[C@H](O)[C@H]3O[C@@H]3OC[C@@H](O)[C@H](O)[C@H]3O)C[C@]12C [NGR1, notoginsenoside R1] . Its measured concentration at 6 h is 0.37

---

I'd appreciate it if you could supply concentration at 1 h values for the items below.
Test: in vivo
Parameters: species or system Sprague-Dawley (SD) rats
Conditions: Sprague-Dawley, rat, plasma, po, 60 mg·kg^−1
Method: At each time, 0.5 mL of blood was collected in the heparin sodium tubes. Plasma was separated by centrifugation at 4000 rpm for 10 min and stored below −80 °C until bioanalysis. Oasis PRiME HLB SPE cartridges (1 cc/30 mg, Waters, Milford, MA, USA) were used to process the plasma samples (Supplementary Materials). […]
Give just the numeric value; ng/mL need not be written.

Entry under test: CC(C)=CCC[C@](C)(O[C@@H]1O[C@H](CO)[C@@H](O)[C@H](O)[C@H]1O)[C@H]1CC[C@]2(C)[C@@H]1[C@H](O)C[C@@H]1[C@@]3(C)CC[C@H](O[C@@H]4O[C@H](CO)[C@@H](O)[C@H](O)[C@H]4O[C@@H]4O[C@H](CO)[C@@H](O)[C@H](O)[C@H]4O)C(C)(C)[C@@H]3CC[C@]12C [GRd, ginsenoside Rd] . Its concentration at 1 h was 13.9

Field concentration at 1 h (entry CC(C)=CCC[C@](C)(O[C@@H]1O[C@H](CO[C@@H]2O[C@H](CO)[C@@H](O)[C@H](O)[C@H]2O)[C@@H](O)[C@H](O)[C@H]1O)[C@H]1CC[C@]2(C)[C@@H]1[C@H](O)C[C@@H]1[C@@]3(C)CC[C@H](O[C@@H]4O[C@H](CO)[C@@H](O)[C@H](O)[C@H]4O[C@@H]4O[C@H](CO)[C@@H](O)[C@H](O)[C@H]4O)C(C)(C)[C@@H]3CC[C@]12C [GRb1, ginsenoside Rb1] ) reads 53.5

Measured concentration at 1 h, CC(C)=CCC[C@](C)(O[C@@H]1O[C@H](CO)[C@@H](O)[C@H](O)[C@H]1O)[C@H]1CC[C@]2(C)[C@@H]1[C@H](O)C[C@@H]1[C@@]3(C)CC[C@H](O)C(C)(C)[C@@H]3[C@@H](O[C@@H]3O[C@H](CO)[C@@H](O)[C@H](O)[C@H]3O[C@@H]3OC[C@@H](O)[C@H](O)[C@H]3O)C[C@]12C [NGR1, notoginsenoside R1] : 0.45

Input CC(C)=CCC[C@](C)(O[C@@H]1O[C@H](CO)[C@@H](O)[C@H](O)[C@H]1O)[C@H]1CC[C@]2(C)[C@@H]1[C@H](O)C[C@@H]1[C@@]3(C)CC[C@H](O)C(C)(C)[C@@H]3[C@@H](O[C@@H]3O[C@H](CO)[C@@H](O)[C@H](O)[C@H]3O)C[C@]12C [GRg1, ginsenoside Rg1] . Output concentration at 1 h: 0.44

Record summary for CC(C)=CCC[C@](C)(O[C@@H]1O[C@H](CO)[C@@H](O)[C@H](O)[C@H]1O)[C@H]1CC[C@]2(C)[C@@H]1[C@H](O)C[C@@H]1[C@@]3(C)CC[C@H](O)C(C)(C)[C@@H]3[C@@H](O[C@@H]3O[C@H](CO)[C@@H](O)[C@H](O)[C@H]3O[C@@H]3O[C@@H](C)[C@H](O)[C@@H](O)[C@H]3O)C[C@]12C [GRe, ginsenoside Re] : reported concentration at 1 h = 0.25
